Where do the numbers come from? From the nanobody polyreactivity screen of Harvey et al. (2022).

# method_description: yeast display, Sf9 membrane polyspecificity reagent, FACS + sequencing; frameworks hold sequencing errors
measured_endpoint: polyreactivity (PSR sort gate)

QVQLVESGGGLVQAGGSLRLSCAASGSTFDENAMGWYRQAPGKERELVAVISDSGGSTYYADSVKGRFTISRDYAKNTVYFQMNSLKPEDTAVYYCAKDVPPEYPTSSYDYWGQGSQVTVSS : low polyreactivity
QVQLVESGGGLVQSGGSLRLSCAASGSSFLWYGMGSYRQAPGKERELVASISRGGGTDYADSVKGRFTISRDNAKNTVYLQMNSLKPEDTAVYYCAATGVKRYDHWGQGTQVTVSS : low polyreactivity
QVQLVESGGGLVQAGGSLRLSCAASGFIFAQNAMGWYRQAPGKERELVAAISGSGGRTYYADSVKGRFTISRDNAKNTVYLQMNSLKPEDTAVYYCAAQSFSGYWGQGTQVTVSS : high polyreactivity
QVQLVESGGGLVQAGGSLRLSCAASGRTFVRYAMGWYRQAPGKERELVAAISWSGGSTYYADSVKGRFTISRDNAKNTVYLQMNSLKPEDTAVYYCATLSAWKASSYDYWGQGTQVTVSS : high polyreactivity
QVQLVESGGGLVQAGGSLRLSCAASGRTFGQYAMGWYRQAPGKERELVAAITTRGGSTYYADSVKGRFTISRDNAKNTVYLQMNSLKPEDTAVYYCIADYPVKRRRGRDYWGQGTQVTVSS : high polyreactivity

Which polyreactivity (PSR sort gate) reading was recorded for the sequence `QVQLVESGGGLVQAGGSLRLSCAASGFTFPHYAMGWYRQAPGKERELVARIRWGGGSTYYADSVKGRFTISRDNAKNTVYLQMNSLKPEDTAVYYCARTTSYLTSTRRYYYWGQGTQVTVSS` ?
high polyreactivity

Look up polyreactivity (PSR sort gate): `QVQLVESGGGLVQAGGSLRLSCAASGSTFKKNAMGWYRQAPGKERELVAAISKRGGRTYYADSVKGRFTISRDNAKNTVYLQMNSLKPEDTAVYYCNAGQQHFDEEEYDYWGQGTQVTVSS`
high polyreactivity

Any idea what its polyreactivity (PSR sort gate) is? The sequence is `QVQLVESGGGLVQAGGSLRLSCAASGSIVTANAMAWYRPAPGKERELVAAITTSGTSTYYADSVKGRFTLSRDNAKNTVYLQMNSLKPEDTSVYYCNADKFYRAGSELDYWGQGTQVTVSS`
high polyreactivity

Look at this sequence and give its reported polyreactivity (PSR sort gate). `QDQLVESGGGLVQAVGSLRLSCAASGSIFSFNAIGWYRQAPGKERELVAVITQRGGSTYYADSVKGRFTISRDNAKTTVYLQMNSLKPEDTAVDYCAARTPRGYYYWGQGTQVTVSS`
high polyreactivity

Using the record for `QVQLVESGGGLVQAGGSLRLSCAASGFIFGDYAMGWYRQAPGKERELVADINWTGGSTYYADSVKGRFTISRDNAKNTVYLQMNSLKPEDTAVYYCAKDDYAFLITWVDYWGQGTQVTVSS` , report its polyreactivity (PSR sort gate).
low polyreactivity

What value of polyreactivity (PSR sort gate) has been reported for the following sequence? `QVQLVESGGGLVQAGGSLRLSCAASGLTFTTYAMGWSRQAPGKERELVAAISRRGSRTYYADSVKGRFTISRDNAKNTVYLQMNSLKPEDTAVYYCNALTGSFKTYSFDYWGQGTQVTVSS`
high polyreactivity
